test: Bmi1 luciferase reporter increase in mESCs, primary screen, esBAF inhibitor project, mouse ES cells, Bmi1 luciferase knock-in, single point (AID 602393); conditions: 24 h, at 12.5 µM, hits give high values, 100% = twice the neutral-well signal;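 also: 0% = median of the plate's neutral control wells and 100% = double that signal; a rise in the Bmi1 reporter signal indicates esBAF inhibition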
Among all 350,000 compounds or so, about 7,000 (2%) were called active. This is one part of a sample in which actives are shown more often than they occur.
Recorded Metric: reporter increase (%)
Answers are plain numbers, in %.

>  <Mol>
COc1ccc(Cc2nnc(NC(=O)Cc3cccs3)s2)cc1

>  <reporter increase / %>
-12.5

$$$$
>  <Mol>
C[C@@H](NC(=O)C[C@@H]1CC[C@@H]2[C@H](COC[C@@H](O)CN2C(=O)Nc2cccc(F)c2)O1)c1ccccc1

>  <reporter increase / %>
11.2

$$$$
>  <Mol>
CC(C)N(C(=O)[C@H]1C[C@H](CC(=O)NCCC2=CCCCC2)C(=O)N2CCc3c([nH]c4cc(CCC(=O)N(C)C)ccc34)[C@]12C)C(C)C

>  <reporter increase / %>
5.79

$$$$
>  <Mol>
O=C(Oc1ccc([N+](=O)[O-])cc1)c1ccc2ccccc2n1

>  <reporter increase / %>
0.987

$$$$
>  <Mol>
O=C(C[C@@H]1CC[C@H](NC(=O)C2CC2)[C@@H](CO)O1)NCc1ccncc1

>  <reporter increase / %>
-3.99

$$$$
>  <Mol>
COc1ccc(C(=O)Nc2nncs2)c(OC)c1

>  <reporter increase / %>
72.1

$$$$

Consider the record given below.
IN: Note down reporter increase recorded for COc1ccc(C(=O)Nc2ccnn2C2CCN(Cc3ccncc3)CC2)cc1
OUT: 4.74

====

test: Bmi1 luciferase reporter increase in mESCs, primary screen, esBAF inhibitor project, mouse ES cells, Bmi1 luciferase knock-in, single point (AID 602393); conditions: 24 h, at 12.5 µM, 100% = twice the neutral-well signal;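 also: 0% = median of the plate's neutral control wells and 100% = double that signal; a rise in the Bmi1 reporter signal indicates esBAF inhibition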
Among all 350,000 compounds or so, about 7,000 (2%) were called active. Cut-off read from the data, not from the text of the source: active = activation above about 40%; inconclusive = no clear call, values can overlap the other calls; inactive = below that. This is one part of a sample in which actives are shown more often than they occur.
Please reply with one of these outcomes: active, inactive

Observe how each entry below is paired with its result.
>  <Mol>
CO[C@H]1CN(C)C(=O)c2ccc(NC(=O)c3cccc(F)c3)cc2OC[C@H](C)N(CC2CC2)C[C@@H]1C

>  <Label>
inactive

$$$$
>  <Mol>
CCOc1ccc2[nH]c(=S)sc2c1

>  <Label>
inactive

$$$$

IN: Can you look up the reported call for COc1ccccc1CNC(=O)COC(=O)c1sc(C)nc1C for me?
OUT: inactive

IN: Call for entry Cc1ccc(C2=Nc3c(ccc4ccccc34)C(c3ccncc3)=NN2)cc1 :
OUT: inactive

IN: In this assay, the call recorded for COc1ccccc1N1CCN(/N=C/c2ccc(O)cc2O)CC1 was what?
OUT: active

IN: Please indicate how the test categorized COc1ccccc1/C=N/Nc1nc(C)c(C(C)=O)s1 .
OUT: active

IN: Write down the call the test reported for this compound. Item: CC1CCN(Cc2nc3c(c(=O)n(C)c(=O)n3C)n2CCc2ccccc2)CC1
OUT: inactive

====

experiment: Bmi1 luciferase reporter increase in mESCs, primary screen, esBAF inhibitor project, mouse ES cells, Bmi1 luciferase knock-in, single point (AID 602393); conditions: 24 h, at 12.5 µM, hits give high values, 100% = twice the neutral-well signal;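 also: 0% = median of the plate's neutral control wells and 100% = double that signal; a rise in the Bmi1 reporter signal indicates esBAF inhibition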
In all, about 350,000 compounds went through this assay and about 7,000 (2%) were called active. The entries come from a sample that favours actives as a whole.
Provide the recorded reporter increase for the entries that follow.
One number for each entry, in %.

Example entries begin here.
>  <Mol>
COc1ccc(/C=N/Nc2ccccc2C(=O)O)cc1

>  <Unit Label>
%

>  <reporter increase>
-28.7

$$$$
>  <Mol>
CCC(=O)N1[C@@H]2c3ccc(-c4ccc(F)cc4)c(=O)n3C[C@H]1[C@H](CO)[C@H]2C(=O)N(C)C

>  <Unit Label>
%

>  <reporter increase>
-3.81

$$$$
>  <Mol>
C[C@H]1CN([C@@H](C)CO)S(=O)(=O)c2ccc(C3=CCCC3)cc2O[C@@H]1CN(C)Cc1ccccc1

>  <Unit Label>
%

>  <reporter increase>
1.2

$$$$
>  <Mol>
C[C@@H]1CN([C@H](C)CO)S(=O)(=O)c2ccc(-c3cccc(F)c3)cc2O[C@H]1CN(C)S(=O)(=O)c1ccc(F)cc1

>  <Unit Label>
%

>  <reporter increase>
10

$$$$
>  <Mol>
O=C1c2ccccc2C(=O)N1CCOc1ccc(F)cc1

>  <Unit Label>
%

>  <reporter increase>
60.3

$$$$

I have 2 compounds here; please give me reporter increase for each one.
1. CCOC(=O)c1cc2cc(C)ccc2[nH]1
2. C[C@@H]1CCCCO[C@H](CN(C)C)[C@H](C)CN([C@@H](C)CO)C(=O)c2cc(NS(=O)(=O)c3ccccc3)ccc2O1

OUT:
1. 70.2
2. -0.305
